Origin of measurements: PubChem BioAssay (NCI)

Experiment: NCI Yeast Anticancer Drug Screen. Data for the sgs1 mgt1 strain (AID 161)
Conditions: S. cerevisiae sgs1 mgt1 strain, at 5.0 µM (retest, dose inferred, filed as 0.5)
Experimental: Growth inhibition of yeast strains with defined genetic alterations is measured as a screen for potential anti-cancer activity. Selected strains with alterations in DNA damage repair or cell cycle control were exposed to compounds and growth inhibition was measured relative to vehicle treated controls. The strain used in this assay is sgs1 mgt1
This is part of a sample that, as a whole, favours compounds with a hit. Of some 79,000 tested, about 15% had one in any assay. Calls of active or inactive are those of the source. No stated cut-off is given here; in the data, active means growth inhibition above about 70%; inactive means the rest.
# output must be one of T for active, F for inactive

[ask] Dear all, I need the recorded test outcome for CCc1cccc(C(C)(C)C)c1NC(=S)N/C=C(\C#N)C(=O)c1ccc2ccccc2c1 , thank you.
[reply] F

[ask] Give the logged outcome of this assay for the following compound: CC(NC(=O)C(NC(=O)C(NC(=O)C(F)(F)F)C(C)C)C(C)C)C(=O)Oc1c(Cl)c(Cl)c(Cl)c(Cl)c1Cl (configuration not stated)
[reply] F

---

Assay: NCI Yeast Anticancer Drug Screen. Data for the mec2-1 strain (AID 157)
Settings: S. cerevisiae mec2-1 strain, at 50.0 µM, active compounds read high
The panel holds about 79,000 compounds, 15% with a hit somewhere; the sample as a whole holds those more often.
Classify by measured growth inhibition: rule met if it is equal to or exceeds 90%, rule not met if it is smaller.

Some solved cases for reference:
O=C(O)C1OC(Oc2ccc3oc4ccccc4c(=O)c3c2)C(O)C(O)C1O (stereo unspecified) :: rule not met
CCN(CC)C(=S)N=Nc1c(O)[nH]c2ccccc12 :: rule not met
CC(=O)Oc1ccc(/C=C2\N=C(c3ccccc3)OC2=O)c(OC(C)=O)c1 :: rule not met
COc1ccc2c(Cc3ccc(O)cc3)cncc2c1O :: rule not met
O=S(=O)(Nc1ccc(-c2ccc(Cl)cc2)cc1)c1ccccc1 :: rule met
COc1ccc(C(=O)C(C(c2ccccc2)N2CCc3ccccc3C2)N2CCc3ccccc3C2)cc1 (stereo unspecified) :: rule not met

[ask] # check: growth inhibition of CC(=O)C(C(=N)C#N)C(=O)Nc1ccccc1 (stereo unspecified) is greater than or equal to 90%
[reply] rule not met

[ask] Hi, just wondering whether COc1ccnc(-c2cc(OC)cc(/C(N)=N/O)n2)c1 shows growth inhibition of 90% or higher.
[reply] rule met

[ask] Given the entry N#CSc1ccc(Nc2ccc(SC#N)cc2)cc1 , answer whether its growth inhibition meets or surpasses 90%.
[reply] rule met

[ask] Item COC(=O)c1nc(N)nc(C(=O)OC)c1C(=O)c1ccccc1 with growth inhibition of 90% or above?
[reply] rule not met

[ask] Could you tell me if the measured growth inhibition of O=C1NCCCNCCCNCCCNC(=O)c2cccc1n2 reaches 90% or more?
[reply] rule not met

[ask] Please indicate if the recorded growth inhibition for CC1(C)OC(=O)C(=NNc2ccccc2[N+](=O)[O-])C(=O)O1 meets or exceeds 90%.
[reply] rule not met

[ask] I'd appreciate it if you could say whether S=c1[nH]nc(Nc2ccccc2Cl)s1 has growth inhibition at least equal to 90%.
[reply] rule not met

[ask] Entry CCC(C(c1ccc(Cl)cc1)c1ccc(Cl)c(Cl)c1)[N+](=O)[O-] (stereo unspecified) : is its growth inhibition no less than 90%?
[reply] rule not met

[ask] Tell me whether growth inhibition is at least 90% here: Clc1ccc(C(CCOc2ccccc2Br)Cn2ccnc2)c(Cl)c1 (stereo unspecified)
[reply] rule met

[ask] // inclusive: growth inhibition at least 90%? input: Cc1ccc(NC2=CC(=O)C(NO)c3ccccc32)cc1 (stereo unspecified)
[reply] rule not met
